TEST_TARGET: hClpP (Homo sapiens)
Sequence (Q16740 57-277): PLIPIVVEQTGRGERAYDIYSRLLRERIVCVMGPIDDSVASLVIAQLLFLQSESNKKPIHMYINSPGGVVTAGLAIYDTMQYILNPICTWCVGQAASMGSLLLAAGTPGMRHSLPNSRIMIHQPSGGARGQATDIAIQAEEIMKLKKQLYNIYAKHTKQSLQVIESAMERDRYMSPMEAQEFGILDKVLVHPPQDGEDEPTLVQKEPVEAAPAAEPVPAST
EXPERIMENT_DESCRIPTION: activating ClpP hydrolysis of FITC-casein (fluorescence kinetic detection)
MEASUREMENT_SETUP: hClpP 1 μM, FITC-Casein 4 μM, 37° C.
Listing of entries alongside the reported EC50.

> print(dat)
                               smiles.entry           test.target  recorded.measurement
1  O=c1c2c(c3cccnc3n1Cc1cccc(Cl)c1)CCN(Cc1ccccc1)C2  hClpP (Homo sapiens)             < 1000 nM

Query: Endpoint output: EC50 of O=c1c2c(c3cccnc3n1Cc1ccc(Br)cc1)CCN(Cc1ccccc1)C2 . Value?
Result: < 1000 nM

Query: Entry O=c1c2c(c3cccnc3n1Cc1ccc(F)cc1)CCN(Cc1cccc(Br)c1)C2 has what EC50?
Result: < 1000 nM

Query: For the compound shown here, O=c1c2c(n3ccnc3n1Cc1ccccc1)CCN(Cc1ccccc1)C2 , give the reported EC50.
Result: 1000 to 10000 nM

Reference source for all entries: patent US20240327408A1
